- target.or.test.system: T1, E. coli 70S ribosome particle (E. coli)
- T1 construct: also called ^Ec70S
- procedure.text: ITC, 30 °C, peptide titrated into E. coli 70S ribosome
pKd: −log10 of the molar value. Square brackets hold non-standard residues; d marks the D form. Ends that are not written are not given here. Cha = N[C@@H](CC1CCCCC1)C(=O)O
endpoint.label: pKd

INSERT INTO measurements (binder, experimental_result) VALUES
  ('VDKPPYLPRPRPPR[dR]IYN[dR]NGPR[Cha]FQLD-OH (Control fusion peptide with scrambled P7; also called Onc112-Scr) [P120 (Onc112-P7Scr), VDKPPYLPRPRPPRrIYNrNGPRChaFQLD-OH]', 7.00),
  ('VDKGSYLPRPTPPRPIYNRN-NH2 (Bought from Novopro; also called unglycosylated pyrrhocoricin) [Py (Pyrrhocoricin), VDKGSYLPRPTPPRPIYNRN-NH2]', 7.81),
  ('VDKPPYLPRPRPPR[dR]IYN[dR]NGPRQ[Cha]DLF-OH (Fusion of Onc112 and P7; the printed Mw 3472.08 agrees with that N; also called CA3-30; Onc-P7) [P30 (Onc112-P7), VDKPPYLPRPRPPRrIYNrNGPRQChaDLF-OH]', 7.15),
  ('VDKPPYLPRPRPPR[dR]IYN[dR]-NH2 (also called CA3 28; CA3-28) [P28 (Onc112), VDKPPYLPRPRPPRrIYNr-NH2]', 7.08);
